Molecular target: T1, GST-HEMBA 1003117 PDZ domain 1 (Homo sapiens (Human)), Q96JH8
T1 chain: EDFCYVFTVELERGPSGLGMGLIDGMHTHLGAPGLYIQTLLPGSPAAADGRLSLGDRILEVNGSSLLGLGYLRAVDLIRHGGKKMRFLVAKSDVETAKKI
Experiment: G assay titration, PDZ 0.5 ug/ml
observation_type: pKd
pKd field: float, defined as -log10 of concentration (mol/L).

*Q* Using the record for STDNLVRPFMDTLASHQLYI (modifications not checked) [presenilin-2] , report its pKd.
*A* 5.40
